The measured values listed here are drawn from ChEMBL document CHEMBL1909046.

- TARGET OF ASSAY: 5-hydroxytryptamine receptor 6 (Homo sapiens); further: in other assays of this panel Not Active means under 50% inhibition at 10 µM
- Sequence (P50406 whole entry): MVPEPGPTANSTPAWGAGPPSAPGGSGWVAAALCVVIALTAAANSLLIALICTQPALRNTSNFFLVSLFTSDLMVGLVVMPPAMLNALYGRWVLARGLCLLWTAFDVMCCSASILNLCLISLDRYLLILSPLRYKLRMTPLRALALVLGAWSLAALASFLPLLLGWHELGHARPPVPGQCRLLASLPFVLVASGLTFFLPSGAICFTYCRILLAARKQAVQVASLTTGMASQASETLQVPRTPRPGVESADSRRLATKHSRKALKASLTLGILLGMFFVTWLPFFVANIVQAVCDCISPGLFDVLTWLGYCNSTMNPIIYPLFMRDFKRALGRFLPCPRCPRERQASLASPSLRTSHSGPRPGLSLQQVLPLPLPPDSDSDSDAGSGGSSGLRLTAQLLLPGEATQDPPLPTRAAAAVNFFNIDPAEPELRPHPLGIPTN
- Assay type: cell membranes, HeLa, Membrane
- MEASUREMENT PARAMETERS: hela
MEASURE NAME: IC50

Cc1c(N)nc([C@H](CC(N)=O)NC[C@H](N)C(N)=O)nc1C(=O)N[C@H](C(=O)N[C@H](C)[C@@H](O)[C@H](C)C(=O)N[C@H](C(=O)NCCc1nc(-c2nc(C(=O)NCCC[S+](C)C)cs2)cs1)[C@@H](C)O)[C@@H](O[C@@H]1O[C@@H](CO)[C@@H](O)[C@H](O)[C@@H]1O[C@H]1O[C@H](CO)[C@@H](O)[C@H](OC(N)=O)[C@@H]1O)c1c[nH]cn1.[Br-] [BLEOMYCIN A2] :: Not Active
C[C@]12CCC(=O)C[C@@H]1CC[C@@H]1[C@@H]2CC[C@]2(C)[C@@H](O)CC[C@@H]12 [STANOLONE] :: Not Active
